The measured values listed here are drawn from PubChem BioAssay AID1159580.

Test: chemical genetic growth profiling, strain panel (AID 1159580);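 note: tested at 20 µM; growth read once vehicle control cultures reached saturation at 30 °C; 1 = growth at the plate median or of vehicle wells; lower values mean less growth of the strain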
Details: S. cerevisiae deletion strains, growth OD, locus YPR119W, strain clb2, hits give low values
In all, about 5,500 compounds went through this assay and about 2,000 (36%) were called active. Roughly 18% stayed inconclusive and do not appear here. The list shows a part of the results.
Measured normalized growth of individual entries
Lab note: record just the number, no unit beside it.

Report normalized growth, nothing else, for this molecule: CC(=O)Oc1cc(-c2coc3cc(OC(C)=O)c(OC(C)=O)c(OC(C)=O)c3c2=O)cc(OC(C)=O)c1OC(C)=O
1.03

Report normalized growth, nothing else, for this molecule: O=C1CC[C@]23C=CC(=O)NCCCCNCCCNC(=O)/C=C/c4ccc(c2c4)O[C@@H]3C1
0.992

Report normalized growth, nothing else, for this molecule: Nc1ccc(C(=O)O)c(O)c1
0.998

Report normalized growth, nothing else, for this molecule: COc1cc([C@@H]2c3cc4c(cc3C(O[C@@H]3O[C@@H]5CO[C@@H](c6cccs6)OC5[C@H](O)[C@H]3O)C3COC(=O)[C@@H]32)OCO4)cc(OC)c1O (some centres not stated)
1.01

----------
Measured normalized growth of individual entries
Experiment: chemical genetic growth profiling, strain panel (AID 1159580)
Conditions: S. cerevisiae deletion strains, growth OD, locus YNR049C, strain mso1, hits give low values
In all, about 5,500 compounds went through this assay and about 2,000 (36%) were called active. Inconclusive results (about 18%) are left out. Some of the results follow.
Lab note: record just the number, no unit beside it.

Some solved cases for reference:
CC(=O)O[C@H]1C[C@H](O[C@H]2[C@@H](O)C[C@H](O[C@H]3[C@@H](O)C[C@H](O[C@H]4CC[C@@]5(C)C(CCC6C5C[C@@H](O)[C@]5(C)[C@@H](C7=CC(=O)OC7)CC[C@]65O)C4)O[C@@H]3C)O[C@@H]2C)O[C@H](C)[C@H]1O[C@@H]1O[C@H](CO)[C@@H](O)[C@H](O)[C@H]1O (stereo not given in full) = 0.992
CC1(C)O[C@@H]2CC3C4CCC5=CC(=O)C=C[C@]5(C)[C@@]4(F)[C@@H](O)C[C@]3(C)[C@]2(C(=O)CO)O1 (stereo not given in full) = 1.01
COc1ccc(-c2cc(=O)c3c(OC)c(OC)c(OC)c(OC)c3o2)cc1 = 0.985
C[C@@H]1CC[C@@]2(OC1)OC1C(O)C3C4CC[C@H]5C[C@H](O[C@@H]6O[C@H](CO)[C@H](O[C@@H]7O[C@H](CO)[C@@H](O)[C@H](O[C@@H]8OC[C@@H](O)[C@H](O)[C@H]8O)[C@H]7O[C@@H]7O[C@H](CO)[C@H](O)[C@H](O[C@@H]8O[C@H](CO)[C@@H](O)[C@H](O)[C@H]8O)[C@H]7O)[C@H](O)[C@H]6O)[C@H](O)C[C@]5(C)C4CC[C@]3(C)C1[C@@H]2C (stereo not given in full) = 1.03

Continue with the next compound.
Report normalized growth, nothing else, for this compound: S=c1ccss1
1

----------
Assay: chemical genetic growth profiling, strain panel (AID 1159580)
Conditions: S. cerevisiae deletion strains, growth OD, locus YGR078C, strain PAC10
In all, about 5,500 compounds went through this assay and about 2,000 (36%) were called active. Inconclusive results (about 18%) are left out. Cut-off read from the data, not from the text of the source: active = normalized growth mostly below about 0.91 (no sharp cut-off); inconclusive = no clear call, values can overlap the other calls; inactive = mostly above about 0.92. The list shows a part of the results.
Thanks in advance; please answer with one of these: Yes (active), No (inactive)

CC(=O)[C@H]1CCC2C3CC=C4C[C@@H](O)CC[C@]4(C)C3CC[C@@]21C (some centres not stated) = No
Clc1ccc(-c2csc(-c3ccno3)n2)s1 = No

--- query ---
Kindly provide the recorded test outcome for the following compound: CN(C)CC/C=C1\c2ccccc2COc2ccccc21
No

----------
Measured normalized growth of individual entries
Experiment: chemical genetic growth profiling, strain panel (AID 1159580)
Conditions: S. cerevisiae deletion strains, growth OD, locus YJL187C, strain SWE1 (second series), hits give low values
About 2,000 (36%) of roughly 5,500 compounds were called active. Not shown: some 18% with an inconclusive outcome. Some of the results follow.
Lab note: record just the number, no unit beside it.

Some solved cases for reference:
Cn1c(=O)c2[nH]c(C3CCCC3)nc2n(C)c1=O = 1.01
CCOC(=O)C1C(C=C(C)C)C1(C)C (stereo not given) = 1
COC(=O)C1=C(C)NC(C)=C(C(=O)OC)C1c1ccccc1[N+](=O)[O-] = 0.99

Report normalized growth, nothing else, for this compound: Nc1ccc(C(=O)O)c(O)c1
1.01

Report normalized growth, nothing else, for this compound: O=C(O)c1nc2cc(Cl)c(Cl)cc2[nH]c1=O
1.01

Report normalized growth, nothing else, for this compound: CC(=O)Nc1ccc(O)cc1
1.01

Report normalized growth, nothing else, for this compound: C=C1C(N)CC2CC1C2(C)C (stereo not given)
1.05

Report normalized growth, nothing else, for this compound: CCCCCCCCCCCCCCCC[n+]1ccccc1
0.0398

Report normalized growth, nothing else, for this compound: CN1CCc2c(c3ccccc3n2Cc2ccccc2)C1
0.96

Report normalized growth, nothing else, for this compound: Nc1ccc(C(=O)Oc2ccccc2)c(O)c1
0.876

Report normalized growth, nothing else, for this compound: COc1ccc(C(=O)/C=C/c2ccccc2)cc1
0.908

Report normalized growth, nothing else, for this compound: CN1CCN2c3ccccc3Cc3ccccc3C2C1 (stereo not given)
1.01

Report normalized growth, nothing else, for this compound: COC(=O)C1=C(C)NC(C)=C(C(=O)OCCN(C)Cc2ccccc2)C1c1cccc([N+](=O)[O-])c1 (stereo not given)
0.973

----------
Assay: chemical genetic growth profiling, strain panel (AID 1159580);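 note: tested at 20 µM; growth read once vehicle control cultures reached saturation at 30 °C; 1 = growth at the plate median or of vehicle wells; lower values mean less growth of the strain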
Settings: S. cerevisiae deletion strains, growth OD, strain TSCII, hits give low values
Among all 5,500 compounds or so, about 2,000 (36%) were called active. Roughly 18% stayed inconclusive and do not appear here. The list shows a part of the results.
Measured normalized growth of individual entries
Lab note: record just the number, no unit beside it.

Some solved cases for reference:
COc1cc(NC(=S)Nc2ccccc2OC(F)(F)F)cc(C(F)(F)F)c1 = 0.97
COc1ccc(C2CC(c3ccccc3)=Nc3ccccc3S2)cc1OC (configuration not stated) = 0.965

Report normalized growth, nothing else, for this molecule: N#Cc1c(Br)cnn1Cc1cc(C(F)(F)F)cc(C(F)(F)F)c1
0.998

Report normalized growth, nothing else, for this molecule: Cc1nc(-c2ccc(C(F)(F)F)cn2)[nH]c(=O)c1Cl
0.888

Report normalized growth, nothing else, for this molecule: Cc1csc2ncnc(N/N=C\c3ccccc3Cl)c12
0.957

Report normalized growth, nothing else, for this molecule: O=C1c2ccccc2O[C@@H](c2ccccc2)[C@@H]1NCc1ccccc1
0.885

Report normalized growth, nothing else, for this molecule: Cc1ccc2c(c1)CCCN2CC(=O)N(c1ccccc1)C1CCCCC1
0.987

Report normalized growth, nothing else, for this molecule: CC(C)c1ccc(-c2cc(=O)c3ccccc3o2)cc1
0.929

Report normalized growth, nothing else, for this molecule: O=C(NNC(=O)c1csc(-c2cccs2)n1)c1ccc(C(F)(F)F)cc1
0.943

Report normalized growth, nothing else, for this molecule: Fc1ccc(N/N=C\Cc2nnnn2-c2ccccc2)c(F)c1
0.945

----------
Experiment: chemical genetic growth profiling, strain panel (AID 1159580);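 note: tested at 20 µM; growth read once vehicle control cultures reached saturation at 30 °C; 1 = growth at the plate median or of vehicle wells; lower values mean less growth of the strain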
Details: S. cerevisiae deletion strains, growth OD, locus YLR262C, strain YPT6 (second series), hits give low values
Screen size: about 5,500 compounds; about 2,000 (36%) were called active. Inconclusive results (about 18%) are left out. The list shows a part of the results.
Measured normalized growth of individual entries

CCCCCCc1ccc(O)cc1O = 0.582 (active)
COc1c(O)cc2c(-c3ccccc3)cc(=O)oc2c1OC = 0.878 (inactive)
Nc1ccc(C(=O)O)c(O)c1 = 0.961 (inactive)
CCCCC1C(=O)N(c2ccccc2)N(c2ccccc2)C1=O = 0.93 (inactive)
CC(C)Oc1ccc2c(=O)cc(-c3ccccc3)oc2c1 = 0.821 (active)
Nc1ccc(C(=O)Oc2ccccc2)c(O)c1 = 0.558 (active)
COc1ccc(-c2cc(=O)c3ccccc3o2)cc1OC = 0.728 (active)
CCN(CC)CCNc1ccc(CO)c2sc3ccccc3c(=O)c12 = 1 (inactive)

Report normalized growth, nothing else, for this molecule: CN(C)C(=O)Oc1cc(OC(=O)N(C)C)cc(C(O)CNC(C)(C)C)c1 (stereo not drawn)
1.03 (inactive)

Report normalized growth, nothing else, for this molecule: CC(=O)Nc1ccc(O)cc1
1.04 (inactive)

Report normalized growth, nothing else, for this molecule: NS(=O)(=O)c1cc2c(cc1C(F)(F)F)NCNS2(=O)=O
1 (inactive)

Report normalized growth, nothing else, for this molecule: COc1c(O)cccc1O
1.03 (inactive)

Report normalized growth, nothing else, for this molecule: NCCc1ccc(O)c(O)c1
0.998 (inactive)

----------
Experiment: chemical genetic growth profiling, strain panel (AID 1159580);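 note: tested at 20 µM; growth read once vehicle control cultures reached saturation at 30 °C; 1 = growth at the plate median or of vehicle wells; lower values mean less growth of the strain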
Conditions: S. cerevisiae deletion strains, growth OD, locus YLR262C, strain YPT6 (second series)
Among all 5,500 compounds or so, about 2,000 (36%) were called active. About 18% were inconclusive and are not listed. Cut-off read from the data, not from the text of the source: active = normalized growth mostly below about 0.91 (no sharp cut-off); inconclusive = no clear call, values can overlap the other calls; inactive = mostly above about 0.92. This is one part of the list.
Thanks in advance; please answer with one of these: active, inactive

Below are worked cases with known answers.
COC(=O)C1=C(C)NC(C)=C(C(=O)OCC(C)C)C1c1ccccc1[N+](=O)[O-] (stereo unspecified) = active
CC1=C2C(=CO[C@H](C)[C@H]2C)C(=O)C(C(=O)O)=C1O = inactive
CC(C)(Oc1ccc(Cl)cc1)C(=O)O = inactive
COC(=O)C1=C(C)NC(C)=C(C(=O)OC)C1c1ccccc1[N+](=O)[O-] = active

Kindly provide the recorded test outcome for the following compound: O=c1cc(-c2cccc(O)c2)oc2ccc(O)cc12
active

Kindly provide the recorded test outcome for the following compound: CC(C)(C)C(=O)C(Oc1ccc(Cl)cc1)n1cncn1 (stereo unspecified)
active
